Cited source: PubChem BioAssay (EPA / NIEHS)

Read-out: Glutamate-cysteine ligase regulatory (GCLM), GCLM (gene 2730)
assay: LTEA_HepaRG_GCLM: Life Technologies and Expression Analysis (LTEA) Assay for Glutamate-cysteine ligase regulatory (GCLM) using HepaRG (AID 2283500)
experimental conditions: mRNA level, 48 h; actives raise or lower the signal
Active and inactive are the calls of the source. How the source made its calls: active means hit-call score of the fitted dose curve at least 0.9, where 1 is the maximum; inactive means score below 0.9.
// one of True for active, False for inactive, no free text

Enquiry: Hey, what did the test say about `CCOc1nc(C(Cl)(Cl)Cl)ns1` ?
Return: True

Enquiry: Could you check what this test reported for `CC(C)NC(=O)N1CC(=O)N(c2cc(Cl)cc(Cl)c2)C1=O` ?
Return: True

Enquiry: Please let me know the test result on file for `COC(=O)c1c(C(F)F)nc(C(F)(F)F)c(C2=NCCS2)c1CC(C)C` .
Return: False

Enquiry: Per the assay record, what outcome was assigned to `Clc1cccc(C(Cl)(Cl)Cl)n1` ?
Return: False

Enquiry: Outcome logged for CC1(C)CCC(=Cc2ccc(Cl)cc2)C1(O)Cn1cncn1 (stereo not given) in this assay:
Return: False

---

Read-out: Glutamate-cysteine ligase catalytic (GCLC), GCLC (gene 2729)
assay: LTEA_HepaRG_GCLC: Life Technologies and Expression Analysis (LTEA) Assay for Glutamate-cysteine ligase catalytic (GCLC) using HepaRG (AID 2283498)
experimental conditions: mRNA level, 48 h; actives raise or lower the signal
Procedure: LTEA_HepaRG is a cell based, multiplexed-readout assay that uses HepaRG, a human liver cell line, with measurements taken at 48 hours after chemical dosing on a 96-well plate.LTEA_HepaRG_GCLC is one of 102 assay component(s) measured in the LTEA HepaRG cell culture assay. It is a marker of Oxidative Stress.Data from the assay component LTEA_HepaRG_GCLC was analyzed into 1 endpoint. […]
The source made the active and inactive calls. Rule for the calls: active = hit-call score of the fitted dose curve at least 0.9, where 1 is the maximum; inactive = score below 0.9.
Hello, when you answer, please use one of the following outcomes: active, inactive

Enquiry: Which outcome was entered for the compound `COP(=S)(OC)Oc1ccc([N+](=O)[O-])c(C)c1` in this test?
Return: inactive

Enquiry: Any idea what this test logged for `C=C(C)CN(CC)c1c([N+](=O)[O-])cc(C(F)(F)F)cc1[N+](=O)[O-]` ?
Return: inactive

Enquiry: // param item: `CC1(C)CON(Cc2ccccc2Cl)C1=O` ; yields the recorded call
Return: inactive

Enquiry: Per the assay record, what outcome was assigned to `CCCCOCN(C(=O)CCl)c1c(CC)cccc1CC` ?
Return: inactive

Enquiry: // param item: `Nc1c(Cl)c(Cl)nc(C(=O)O)c1Cl` ; yields the recorded call
Return: inactive

Enquiry: Which outcome was entered for the compound `N#Cc1c[nH]cc1-c1cccc2c1OC(F)(F)O2` in this test?
Return: inactive

Enquiry: For `CS(=O)(=O)c1cc(C(F)(F)F)ccc1C(=O)c1cnoc1C1CC1` , what call appears in the results of this test?
Return: inactive

Enquiry: Which outcome did this test record for the compound `CO/N=C(/C1=NOCCO1)c1ccccc1Oc1ncnc(Oc2ccccc2Cl)c1F` ?
Return: inactive

Enquiry: GET /call?item= `O=C(Nc1ccccc1-c1ccc(Cl)cc1)c1cccnc1Cl` returns the recorded outcome of this test.
Return: inactive

Enquiry: What classification did `CCOc1nc(C(Cl)(Cl)Cl)ns1` end up with in this test?
Return: active

Enquiry: Assay outcome for CCOC(=O)C(C)OC(=O)c1cc(Oc2ccc(C(F)(F)F)cc2Cl)ccc1[N+](=O)[O-] (stereo unspecified) : what was it?
Return: inactive

Enquiry: Look up the recorded call for CC(C)(C)C(=O)C(Oc1ccc(Cl)cc1)n1cncn1 (stereo unspecified) in this test.
Return: inactive

Enquiry: Recorded test call requested for `COc1cc(OC)nc(NC(=O)NS(=O)(=O)c2ncccc2OCC(F)(F)F)n1`
Return: inactive

Enquiry: What classification did O=C1C2CC=CCC2C(=O)N1SC(Cl)(Cl)Cl (stereo unspecified) end up with in this test?
Return: inactive

Enquiry: Dear colleague, could you share the recorded outcome for `COC(=O)c1c(C(F)F)nc(C(F)(F)F)c(C2=NCCS2)c1CC(C)C` when you have a moment?
Return: inactive

Enquiry: Answer briefly: the call reported for CCCCC(O)(Cn1cncn1)c1ccc(Cl)cc1Cl (stereo unspecified) in this assay.
Return: inactive
